This collection of values is drawn from patent US8501757B2.

pIC50: recorded values
measurementTarget: rat mGluR5 (Rattus norvegicus, UniProt P31424)
Sequence (P31424 21-1203): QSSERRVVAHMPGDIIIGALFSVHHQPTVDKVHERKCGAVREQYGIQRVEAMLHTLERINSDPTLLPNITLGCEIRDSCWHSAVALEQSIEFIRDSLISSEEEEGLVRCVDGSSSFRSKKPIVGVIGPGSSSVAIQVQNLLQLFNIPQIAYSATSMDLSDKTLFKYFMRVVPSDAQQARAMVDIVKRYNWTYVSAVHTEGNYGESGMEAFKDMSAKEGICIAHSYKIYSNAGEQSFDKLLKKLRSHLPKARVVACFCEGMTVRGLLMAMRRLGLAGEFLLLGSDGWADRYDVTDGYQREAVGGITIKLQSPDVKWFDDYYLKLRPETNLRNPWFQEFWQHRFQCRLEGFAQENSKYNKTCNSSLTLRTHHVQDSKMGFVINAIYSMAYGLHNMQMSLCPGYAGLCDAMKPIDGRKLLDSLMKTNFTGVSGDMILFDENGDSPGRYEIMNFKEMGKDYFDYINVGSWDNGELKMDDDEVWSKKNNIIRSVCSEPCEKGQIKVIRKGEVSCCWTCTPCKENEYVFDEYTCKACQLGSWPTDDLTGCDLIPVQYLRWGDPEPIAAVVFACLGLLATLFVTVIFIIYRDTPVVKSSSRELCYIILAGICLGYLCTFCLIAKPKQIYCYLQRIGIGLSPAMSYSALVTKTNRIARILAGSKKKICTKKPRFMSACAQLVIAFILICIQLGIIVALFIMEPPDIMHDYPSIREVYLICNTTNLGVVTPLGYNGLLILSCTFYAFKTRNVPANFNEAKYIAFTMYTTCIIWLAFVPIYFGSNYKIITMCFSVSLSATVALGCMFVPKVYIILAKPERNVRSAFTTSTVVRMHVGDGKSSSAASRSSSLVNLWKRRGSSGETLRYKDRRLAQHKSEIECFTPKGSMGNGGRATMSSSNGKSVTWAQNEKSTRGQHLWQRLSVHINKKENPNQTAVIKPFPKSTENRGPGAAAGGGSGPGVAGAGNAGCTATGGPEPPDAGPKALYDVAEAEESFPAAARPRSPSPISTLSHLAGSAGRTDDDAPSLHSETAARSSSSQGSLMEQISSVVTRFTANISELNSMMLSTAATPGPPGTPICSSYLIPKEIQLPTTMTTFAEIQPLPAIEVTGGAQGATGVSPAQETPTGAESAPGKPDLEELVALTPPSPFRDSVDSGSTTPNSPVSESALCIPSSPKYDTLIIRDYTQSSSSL
procedureText: cell-based
pIC50: −log10 of the molar value.
propertyLabel: pIC50

structure	measurementTarget	quantitativeResult
CN(c1cncnc1)c1cccc(NC(=O)c2cccc(F)c2)c1	rat mGluR5 (Rattus norvegicus, UniProt P31424)	7.68
Cc1cccc(C(=O)Nc2cc(Cl)cc(Oc3ccc(C)nc3)c2)c1	rat mGluR5 (Rattus norvegicus, UniProt P31424)	5.16
CC(C)Oc1ccnc(C(=O)Nc2cc(F)cc(Oc3cncnc3)c2)c1	rat mGluR5 (Rattus norvegicus, UniProt P31424)	6.64
CN(c1cncnc1)c1cc(NC(=O)c2cccc(C#N)c2)cc(F)c1F	rat mGluR5 (Rattus norvegicus, UniProt P31424)	6.83
